B1: STEAP1 (parent)
chain: WMLTRKQFGLLSFFFAVLHAIYSL

- Variants of: B1
- assay_text: protein stability index of a GFP-peptide fusion (GPS, HEK-293T) (PSI 1-6); higher = more stable;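 also: lentivirally expressed fusions sorted by FACS into six bins by GFP to DsRed ratio, PSI derived from sequencing read proportions per bin multiplied by bin number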
- cond: c terminus: a fixed tail appended
endpoint_name: protein stability index
Respond using a number only.

Examples from the recorded data:
S23T: 1.55
L3W: 1.73
A20E: 2.56
S12A: 2.05
W1N: 2.35
T4Y: 1.41
L11D: 2.23
S12H: 1.94

--- query ---
query: I would be grateful if you could share the reported protein stability index for K6Q .
result: 2.48
